target: β5c subunit of isolated human 20S proteasome (Homo sapiens); construct: purchased Enzo Life Sciences; test: Proteasome inhibition assay (20 S Proteasome Assay Kit, Suc‐LLVY‐AMC); assay type: biochemical; settings: c=100 nM; read-out: Rel. Inhibition β5c
Kindly state inhibition at 0.1 µM for each of the entries shown.
# number only, unit % dropped from output

Task item: Please look up its inhibition at 0.1 µM: CC(C)C[C@H](NC(=O)OCc1ccccc1)C(=O)N[C@@H](CC(=O)OC(C)(C)C)C(=O)N[C@@H](CC(C)C)C(=O)C(=O)Nc1ccccc1Oc1ccccc1 [Compound 18]
Reply: 28

Task item: Please look up its inhibition at 0.1 µM: CC(C)C[C@H](NC(=O)[C@H](Cc1ccccc1)NC(=O)c1cnccn1)B(O)O [Bortezomib 1, Bortezomib, reference compound]
Reply: 89

Task item: Please look up its inhibition at 0.1 µM: Cc1cc(C)c(Oc2ccccc2)cc1NC(=O)C(=O)[C@H](CC(C)C)NC(=O)[C@H](CC(C)C)NC(=O)[C@H](CC(C)C)NC(=O)c1cc(Cl)ccc1Cl [Compound 27]
Reply: 83
